Measured Ki by item
assay-system: Genome polyprotein (dengue virus type 2)
Sequence (P29990 1346-1475 limits assumed): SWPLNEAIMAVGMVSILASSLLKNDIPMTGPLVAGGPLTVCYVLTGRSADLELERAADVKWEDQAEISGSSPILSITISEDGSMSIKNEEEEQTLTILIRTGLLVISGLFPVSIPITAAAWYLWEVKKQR
Sequence (P29990 1476-2093 limits assumed): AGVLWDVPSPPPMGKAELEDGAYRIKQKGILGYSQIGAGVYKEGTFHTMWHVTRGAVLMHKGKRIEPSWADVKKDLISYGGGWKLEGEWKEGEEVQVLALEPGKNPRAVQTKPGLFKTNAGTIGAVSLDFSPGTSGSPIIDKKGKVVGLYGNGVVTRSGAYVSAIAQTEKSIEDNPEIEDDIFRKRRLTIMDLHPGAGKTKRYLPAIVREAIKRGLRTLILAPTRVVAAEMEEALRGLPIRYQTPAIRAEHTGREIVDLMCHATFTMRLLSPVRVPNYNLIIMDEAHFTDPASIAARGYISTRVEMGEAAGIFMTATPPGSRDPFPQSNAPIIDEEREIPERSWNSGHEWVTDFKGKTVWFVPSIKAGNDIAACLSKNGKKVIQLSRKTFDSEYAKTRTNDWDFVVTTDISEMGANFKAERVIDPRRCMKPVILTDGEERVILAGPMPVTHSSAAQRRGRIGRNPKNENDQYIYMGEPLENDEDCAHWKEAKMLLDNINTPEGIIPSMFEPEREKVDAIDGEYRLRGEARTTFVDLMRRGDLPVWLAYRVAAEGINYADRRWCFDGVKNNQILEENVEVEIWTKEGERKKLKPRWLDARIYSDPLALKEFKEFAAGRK
Square brackets hold non-standard residues; d marks the D form. Peptide text beside a SMILES is read from it. * marks the point of attachment. Phe(4-Cl) = N[C@@H](Cc1ccc(Cl)cc1)C(=O)O; Nle = CCCC[C@H](N)C(=O)O; Bz = O=C(c1ccccc1)*
Lab book: enter the figure in µM, no units written.

Completed entries (count: 3):
CCCC[C@H](NC(=O)c1ccccc1)C(=O)N[C@@H](CCCCN)C(=O)N[C@@H](CCCCN)C(=O)N[C@H](C=O)CCCNC(=N)N (Bz-[Nle]KKR-aldehyde) | 41.3
C[C@H](NC(=O)c1ccccc1)C(=O)N[C@@H](CCCCN)C(=O)N[C@@H](CCCN=C(N)N)C(=O)N[C@H](C=O)CCCN=C(N)N (Bz-AKRR-aldehyde) | 5.3
NCCCC[C@H](NC(=O)[C@H](Cc1ccccc1)NC(=O)c1ccccc1)C(=O)N[C@@H](CCCN=C(N)N)C(=O)N[C@H](C=O)CCCN=C(N)N (Bz-FKRR-aldehyde) | 6.8

// Ki lookup, compound = CCCC[C@H](NC(=O)c1ccccc1)C(=O)N[C@@H](CCCCN)C(=O)N[C@H](CCCN=C(N)N)C(=O)N[C@H](C=O)CCCN=C(N)N (Bz-[Nle]K[dR]R-aldehyde) , result: 115

// Ki lookup, compound = CCCC[C@H](NC(=O)c1ccccc1)C(=O)N[C@@H](CCCCN)C(=O)N[C@@H](CCCN=C(N)N)C(=O)N[C@H](C=O)Cc1ccc(Cl)cc1 (Bz-[Nle]KR[Phe(4-Cl)]-aldehyde) , result: 138

// Ki lookup, compound = CCCC[C@H](NC(=O)c1ccccc1)C(=O)N[C@@H](CCCCN)C(=O)N[C@@H](CCCN=C(N)N)C(=O)N[C@@H](C)C=O (Bz-[Nle]KRA-aldehyde) , result: 193

====

Measured pKi by item
assay-system: Genome polyprotein (dengue virus type 2)
Square brackets hold non-standard residues; d marks the D form. Peptide text beside a SMILES is read from it. * marks the point of attachment. Phe(4-guanidino) = N=C(N)Nc1ccc(C[C@H](N)C(=O)O)cc1; Bip = N[C@@H](Cc1ccc(-c2ccccc2)cc1)C(=O)O; Phe(4-Me) = Cc1ccc(C[C@H](N)C(=O)O)cc1; Phg = N[C@H](C(=O)O)c1ccccc1; Nle = CCCC[C@H](N)C(=O)O; Bz = O=C(c1ccccc1)*
Notebook: values listed as pKi are -log10 of the concentration (mol/L).

CCCC[C@H](NC(=O)c1ccccc1)C(=O)N[C@@H](CCCCN)C(=O)N[C@@H](CCCN=C(N)N)C(=O)N[C@H](C=O)CCCCN (Bz-[Nle]KRK-aldehyde) | 4.69
CCCC[C@H](NC(=O)c1ccccc1)C(=O)N[C@@H](C)C(=O)N[C@@H](CCCN=C(N)N)C(=O)N[C@H](C=O)CCCN=C(N)N (Bz-[Nle]ARR-aldehyde) | 4.66
CCCC[C@H](NC(=O)c1ccccc1)C(=O)N[C@@H](CCCCN)C(=O)N[C@@H](CCCN=C(N)N)C(=O)N[C@H](C=O)Cc1ccc(-c2ccccc2)cc1 (Bz-[Nle]KR[Bip]-aldehyde) | 4.94
CCCC[C@H](NC(=O)c1ccccc1)C(=O)N[C@@H](CCCCN)C(=O)N[C@@H](CCCNC(=N)N)C(=O)N[C@H](C=O)Cc1ccc(NC(=N)N)cc1 (Bz-[Nle]KR[Phe(4-guanidino)]-aldehyde) | 5.55
CCCC[C@H](NC(=O)c1ccccc1)C(=O)N[C@@H](CCCCN)C(=O)N[C@@H](CCCN=C(N)N)C(=O)N[C@@H](C=O)CCCN=C(N)N (Bz-[Nle]KR[dR]-aldehyde) | 4.29

// pKi lookup, molecule = NCCCC[C@H](NC(=O)c1ccccc1)C(=O)N[C@@H](CCCN=C(N)N)C(=O)N[C@H](C=O)CCCN=C(N)N (Bz-Lys-Arg-Arg-aldehyde) , result: 5.82

// pKi lookup, molecule = CCCC[C@H](NC(=O)c1ccccc1)C(=O)N1CCC[C@H]1C(=O)N[C@@H](CCCN=C(N)N)C(=O)N[C@H](C=O)CCCN=C(N)N (Bz-[Nle]PRR-aldehyde) , result: 4.21

// pKi lookup, molecule = CCCC[C@H](NC(=O)c1ccccc1)C(=O)N[C@@H](CCCCN)C(=O)N[C@@H](CCCN=C(N)N)C(=O)N[C@H](C=O)Cc1ccc(C)cc1 (Bz-[Nle]KR[Phe(4-Me)]-aldehyde) , result: 5.22

// pKi lookup, molecule = CCCC[C@H](NC(=O)c1ccccc1)C(=O)N[C@@H](CCCCN)C(=O)N[C@@H](CCCN=C(N)N)C(=O)N[C@H](C=O)Cc1c[nH]c2ccccc12 (Bz-[Nle]KRW-aldehyde) , result: 5.12

// pKi lookup, molecule = CCCC[C@H](NC(=O)c1ccccc1)C(=O)N[C@@H](CCCCN)C(=O)N[C@@H](CCCN=C(N)N)C(=O)N[C@H](C=O)c1ccccc1 (Bz-[Nle]KR[Phg]-aldehyde) , result: 4.48

// pKi lookup, molecule = CCCC[C@H](NC(=O)c1ccccc1)C(=O)N[C@@H](Cc1ccccc1)C(=O)N[C@@H](CCCN=C(N)N)C(=O)N[C@H](C=O)CCCN=C(N)N (Bz-[Nle]FRR-aldehyde) , result: 4.80

====

Here we list molecules with their recorded pKi when tested on Genome polyprotein (dengue virus type 2).
Square brackets hold non-standard residues; d marks the D form. Peptide text beside a SMILES is read from it. * marks the point of attachment. Phe(4-CN) = N#Cc1ccc(C[C@H](N)C(=O)O)cc1; NMeR = CN[C@@H](CCCNC(=N)N)C(=O)O; NMeNle = CCCC[C@H](NC)C(=O)O; Nle = CCCC[C@H](N)C(=O)O; Bz = O=C(c1ccccc1)*
Notebook: values listed as pKi are -log10 of the concentration (mol/L).

// pKi lookup, molecule = NC(N)=NCCC[C@@H](C=O)NC(=O)[C@H](CCCN=C(N)N)NC(=O)c1ccccc1 (Bz-Arg-Arg-aldehyde) , result: 4.92

// pKi lookup, molecule = CCCC[C@H](NC(=O)c1ccccc1)C(=O)N[C@@H](CCCCN)C(=O)N[C@@H](CCCN=C(N)N)C(=O)N[C@H](C=O)Cc1ccccc1 (Bz-[Nle]KRF-aldehyde) , result: 4.80

// pKi lookup, molecule = CCCC[C@H](NC(=O)c1ccccc1)C(=O)N[C@@H](CCCCN)C(=O)N[C@@H](CCCN=C(N)N)C(=O)N[C@H](C=O)Cc1ccc(C#N)cc1 (Bz-[Nle]KR[Phe(4-CN)]-aldehyde) , result: 4.73

// pKi lookup, molecule = CCCC[C@@H](C(=O)N[C@@H](CCCCN)C(=O)N[C@@H](CCCN=C(N)N)C(=O)N[C@H](C=O)CCCN=C(N)N)N(C)C(=O)c1ccccc1 (Bz-[NMeNle]KRR-aldehyde) , result: 4.36

// pKi lookup, molecule = CCCC[C@H](NC(=O)c1ccccc1)C(=O)N[C@@H](CCCCN)C(=O)N1CCC[C@H]1C(=O)N[C@H](C=O)CCCN=C(N)N (Bz-[Nle]KPR-aldehyde) , result: 3.96

// pKi lookup, molecule = CCCC[C@H](NC(=O)c1ccccc1)C(=O)N[C@@H](CCCCN)C(=O)N[C@@H](Cc1ccccc1)C(=O)N[C@H](C=O)CCCNC(=N)N (Bz-[Nle]KFR-aldehyde) , result: 4.39

// pKi lookup, molecule = CCCC[C@H](NC(=O)c1ccccc1)C(=O)N[C@H](CCCCN)C(=O)N[C@@H](CCCN=C(N)N)C(=O)N[C@H](C=O)CCCN=C(N)N (Bz-[Nle][dK]RR-aldehyde) , result: 4.54

// pKi lookup, molecule = CCCC[C@H](NC(=O)c1ccccc1)C(=O)N[C@@H](CCCCN)C(=O)N(C)[C@@H](CCCN=C(N)N)C(=O)N[C@H](C=O)CCCN=C(N)N (Bz-[Nle]K[NMeR]R-aldehyde) , result: 4.32
